Values were extracted from patent US20230233736A1.

Give measured MRSA for each item. Keep answers brief.
System: Methicillin resistant Staphylococcus aureus (MRSA) strain ATCC 33591
Conditions: Table 5; strain ATCC 33591
Record the value in mg/L, omitting the unit from your answer.

In: Which MRSA is listed for CC(C)(C)c1cc(C(C)(C)C)c2[nH]c(C(C)(C)C)c(C[C@H](NC(=O)[C@@H](N)CCCNC(=N)N)C(=O)N[C@@H](CCCNC(=N)N)C(=O)NC3CCCCC3)c2c1 [Compound 13] ?
Out: 2

In: Report MRSA for CCCCCCCCCCCCCCCCNC(=O)[C@H](CCCNC(=N)N)NC(=O)[C@H](Cc1c(C(C)(C)C)[nH]c2c(C(C)(C)C)cc(C(C)(C)C)cc12)NC(=O)[C@@H](N)CCCNC(=N)N [Compound 11] please.
Out: 4

In: Name the reported MRSA value associated with the compound CCCCNC(=O)[C@H](CCCNC(=N)N)NC(=O)[C@H](Cc1c(C(C)(C)C)[nH]c2c(C(C)(C)C)cc(C(C)(C)C)cc12)NC(=O)[C@@H](N)CCCNC(=N)N [Compound 9]
Out: 3
